Each item that follows carries a reported pIC50.
Target: menin/MLL (terbium chelate-labeled menin, FITC-MBM1 peptide) (Homo sapiens, UniProt O00255, T541A)
Construct: Menin (a.a 1-610-6xhis tag)
Sequence (O00255 with tags, fused parts or gaps T541A): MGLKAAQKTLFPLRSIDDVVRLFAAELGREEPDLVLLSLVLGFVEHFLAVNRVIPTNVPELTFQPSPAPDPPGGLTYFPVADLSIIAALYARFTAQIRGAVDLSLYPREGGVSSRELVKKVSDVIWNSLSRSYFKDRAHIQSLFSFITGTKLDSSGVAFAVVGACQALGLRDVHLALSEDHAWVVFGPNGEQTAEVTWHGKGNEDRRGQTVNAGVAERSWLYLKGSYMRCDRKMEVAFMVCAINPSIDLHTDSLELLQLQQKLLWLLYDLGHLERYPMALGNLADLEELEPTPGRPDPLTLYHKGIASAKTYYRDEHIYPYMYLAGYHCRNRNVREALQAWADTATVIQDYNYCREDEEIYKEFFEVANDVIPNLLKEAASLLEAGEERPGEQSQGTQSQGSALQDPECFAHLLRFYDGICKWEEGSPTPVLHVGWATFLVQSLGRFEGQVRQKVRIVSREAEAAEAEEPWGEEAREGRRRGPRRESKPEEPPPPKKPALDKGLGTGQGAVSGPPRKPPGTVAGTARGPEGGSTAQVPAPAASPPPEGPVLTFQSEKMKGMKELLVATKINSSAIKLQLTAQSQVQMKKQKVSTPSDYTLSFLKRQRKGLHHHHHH
Assay: Menin/MLL homogenous time-resolved fluorescence (HTRF) assay
Conditions: 30 min incubation
pIC50: −log10 of the molar value.
readout label: pIC50

COC(=O)c1nccc(N[C@H]2C[C@@H](C(C(C)C)N3CC4(CCN(c5ncnnc5Oc5ccc(F)cc5-c5cncnc5C5CC5)C4)C3)C2)n1 (single isomer, unassigned): 9.66
CC(C)C([C@H]1C[C@@H](N)C1)N1CC2(CCN(c3ncnnc3Oc3ccc(F)cc3-c3cncnc3C3CC3)C2)C1 (single isomer, unassigned) [Compound 1b]: 9.40
CC(C)[C@H](C1CCN(CC2COC2)CC1)N1CC2(CCN(c3ncnnc3Oc3ccc(F)cc3-c3cncnc3C3CC3)C2)C1 (single isomer, unassigned): 9.70
CC(C)[C@@H](C1CC2(C1)CN(CC1COC1)C2)N1CC2(CCN(c3ncnnc3Oc3ccc(F)cc3-c3cncnc3C3CC3)C2)C1 (single isomer, unassigned): 9.70
CC(=O)Nc1cc(NC2CC(C(C(C)C)N3CC4(CCN(c5ncnnc5Oc5ccc(F)cc5-c5cncnc5C5CC5)C4)C3)C2)ccn1 (stereo not shown): 9.96
CC(C)[C@H]([C@H]1C[C@@H](N2CCCC2)C1)N1CC2(CCN(c3ncnnc3Oc3ccc(F)cc3-c3cncnc3C3CC3)C2)C1 (single isomer, unassigned): 10.00
CC(=O)N1CC2(C1)CN([C@H]1C[C@@H]([C@H](C(C)C)N3CC4(CCN(c5ncnnc5Oc5ccc(F)cc5-c5ncc(C)cc5C5CC5)C4)C3)C1)C2 (single isomer, unassigned): 9.11
CNC(=O)c1cnc(N[C@H]2C[C@@H]([C@@H](C(C)C)N3CC4(CCN(c5ncnnc5Oc5ccc(F)cc5-c5cnc(C)nc5C5CC5)C4)C3)C2)o1 (single isomer, unassigned): 9.77
CC(C)[C@H]([C@H]1C[C@@H](N2CCC3(COC3)C2)C1)N1CC2(CCN(c3ncnnc3Oc3ccc(F)cc3-c3nnccc3C3CC3)C2)C1 (single isomer, unassigned): 8.33
CC(C)[C@H]([C@H]1C[C@@H](N2CC3(CCCO3)C2)C1)N1CC2(CCN(c3ncnnc3Oc3ccc(F)cc3-c3cncnc3C3CC3)C2)C1 (single isomer, unassigned): 9.52
CC(C)[C@H]([C@H]1C[C@@H](Nc2ccn3ccnc3c2)C1)N1CC2(CCN(c3ncnnc3Oc3ccc(F)cc3-c3cncnc3C3CC3)C2)C1 (single isomer, unassigned): 9.52
CC(=O)N1CCN([C@H]2C[C@@H]([C@H](C(C)C)N3CC4(CCN(c5ncnnc5Oc5ccc(F)cc5-c5cccnc5C5CC5)C4)C3)C2)CC1 (single isomer, unassigned): 9.70
CC(C)[C@H]([C@H]1C[C@@H](N2CCC[C@@H](C(=O)N(C)C)C2)C1)N1CC2(CCN(c3ncnnc3Oc3ccc(F)cc3-c3cncnc3C3CC3)C2)C1 (single isomer, unassigned): 10.00
CC(C)[C@H]([C@H]1C[C@@H](N2C[C@H]3COC[C@H]3C2)C1)N1CC2(CCN(c3ncnnc3Oc3ccc(F)cc3-c3cncnc3C3CC3)C2)C1 (single isomer, unassigned): 10.00
CC(C)C([C@H]1C[C@@H](NC(=O)C2CC2)C1)N1CC2(CCN(c3ncnnc3Oc3ccc(F)cc3-c3cnncc3C3CC3)C2)C1 (stereo partly shown): 9.70
CC(=O)N1CC2(CCN([C@H]3C[C@@H]([C@@H](C(C)C)N4CC5(CCN(c6ncnnc6Oc6ccc(F)cc6-c6cncnc6C6CC6)C5)C4)C3)C2)C1 (single isomer, unassigned): 9.70
CC(C)[C@@H]([C@H]1C[C@@H](N2CC[C@H](S(C)(=O)=O)C2)C1)N1CC2(CCN(c3ncnnc3Oc3ccc(F)cc3-c3ncccc3C3CC3)C2)C1 (single isomer, unassigned): 7.63
CC(C)[C@H]([C@H]1C[C@@H](N2C[C@@H](O)C3(CCC3)C2)C1)N1CC2(CCN(c3ncnnc3Oc3ccc(F)cc3-c3cncnc3C3CC3)C2)C1 (single isomer, unassigned): 10.00
CC(C)[C@H]([C@H]1C[C@@H](N2CCC(C)(C(=O)N(C)C)CC2)C1)N1CC2(CCN(c3ncnnc3Oc3ccc(F)cc3-c3cncnc3C3CC3)C2)C1 (single isomer, unassigned): 10.00
